# assay-method-text: method code SF-AS, from DOI: 10.2298/ciceq100329044p
# condition-info: pH 7.4
observable: logD

smiles-entry | endpoint-value
Cc1nc2ccccc2n1Cc1ccccc1 | 3.51
Cc1nc2ccccc2n1C(=O)c1ccccc1 | 3.38
Cc1nc2ccccc2n1C(=O)c1ccc(Cl)cc1 | 3.95
Cc1ccc(C(=O)n2c(C)nc3ccccc32)cc1 | 3.87
Cc1ccc(C(=O)n2c(N)nc3ccccc32)cc1 | 3.35
Nc1nc2ccccc2n1C(=O)c1ccc(Cl)cc1 | 3.45
Cc1nc2ccccc2n1Cc1ccc(Cl)cc1 | 4.07
Cc1ccc(Cn2c(C)nc3ccccc32)cc1 | 4.01
Nc1nc2ccccc2n1C(=O)c1ccccc1 | 2.9
